# Test system: HARA
# protocol.text: relative viability (nuclei count vs DMSO), 5 days (fraction); higher = more cells survive
# experimental.conditions: first compound 0.03162 µM
measurement.type: relative viability

1. Cc1cn(-c2cc(NC(=O)c3ccc(C)c(Nc4nccc(-c5cccnc5)n4)c3)cc(C(F)(F)F)c2)cn1 [Nilotinib] + COc1cc2c(Oc3ccc(NC(=O)C4(C(=O)Nc5ccc(F)cc5)CC4)cc3F)ccnc2cc1OCCCN1CCOCC1 [Foretinib] (partner 0.25 µM)
0.811
2. Cc1cn(-c2cc(NC(=O)c3ccc(C)c(Nc4nccc(-c5cccnc5)n4)c3)cc(C(F)(F)F)c2)cn1 [Nilotinib] + Cc1nc(Nc2ncc(C(=O)Nc3c(C)cccc3Cl)s2)cc(N2CCN(CCO)CC2)n1 [Dasatinib] (partner 0.075 µM)
0.178

====

# Test system: PC-14
# protocol.text: relative viability (nuclei count vs DMSO), 5 days (fraction); higher = more cells survive
# experimental.conditions: first compound 0.6325 µM
measurement.type: relative viability

1. Cc1csc(=NC2CCCCC2)n1/N=C/c1ccc(O)c(O)c1O [MIM1] + CC(C)C[C@H](NC(=O)[C@H](Cc1ccccc1)NC(=O)c1cnccn1)B(O)O [Bortezomib] (partner 0.002 µM)
0.882
2. CN1CCN(CCOc2cc(OC3CCOCC3)c3c(Nc4c(Cl)ccc5c4OCO5)ncnc3c2)CC1 [Saracatinib] + O=C(CCCCCCC(=O)Nc1ccccc1)NO [Vorinostat] (partner 1 µM)
0.163
3. CN1CCN(CCOc2cc(OC3CCOCC3)c3c(Nc4c(Cl)ccc5c4OCO5)ncnc3c2)CC1 [Saracatinib] + Cc1nc(NC(=O)N2CCC[C@H]2C(N)=O)sc1-c1ccnc(C(C)(C)C(F)(F)F)c1 [Alpelisib] (partner 2 µM)
0.46
4. CN1CCN(CCOc2cc(OC3CCOCC3)c3c(Nc4c(Cl)ccc5c4OCO5)ncnc3c2)CC1 [Saracatinib] + COc1cccc2cc(-c3nc([C@H]4CC[C@H](C(=O)O)CC4)n4ncnc(N)c34)[nH]c12 [OSI-027] (partner 0.5 µM)
0.151
5. CN1CCN(CCOc2cc(OC3CCOCC3)c3c(Nc4c(Cl)ccc5c4OCO5)ncnc3c2)CC1 [Saracatinib] + CS(=O)(=O)CCNCc1ccc(-c2ccc3ncnc(Nc4ccc(OCc5cccc(F)c5)c(Cl)c4)c3c2)o1 [Lapatinib] (partner 2 µM)
0.305
6. CN1CCN(CCOc2cc(OC3CCOCC3)c3c(Nc4c(Cl)ccc5c4OCO5)ncnc3c2)CC1 [Saracatinib] + N=C(N)NC(=N)NCCc1ccccc1 [Phenformin] (partner 250 µM)
0.256
7. CN1CCN(CCOc2cc(OC3CCOCC3)c3c(Nc4c(Cl)ccc5c4OCO5)ncnc3c2)CC1 [Saracatinib] + O=C(c1cc(Cc2n[nH]c(=O)c3ccccc23)ccc1F)N1CCN(C(=O)C2CC2)CC1 [Olaparib] (partner 8 µM)
0.201
8. Cc1csc(=NC2CCCCC2)n1/N=C/c1ccc(O)c(O)c1O [MIM1] + CC(=O)c1c(C)c2cnc(Nc3ccc(N4CCNCC4)cn3)nc2n(C2CCCC2)c1=O [Palbociclib] (partner 0.5 µM)
0.554
9. Cc1csc(=NC2CCCCC2)n1/N=C/c1ccc(O)c(O)c1O [MIM1] + CS(=O)(=O)CCNCc1ccc(-c2ccc3ncnc(Nc4ccc(OCc5cccc(F)c5)c(Cl)c4)c3c2)o1 [Lapatinib] (partner 2 µM)
0.332
10. CN1CCN(CCOc2cc(OC3CCOCC3)c3c(Nc4c(Cl)ccc5c4OCO5)ncnc3c2)CC1 [Saracatinib] + COc1cc2c(Oc3ccc(NC(=O)C4(C(=O)Nc5ccc(F)cc5)CC4)cc3F)ccnc2cc1OCCCN1CCOCC1 [Foretinib] (partner 0.25 µM)
0.612
11. CN1CCN(CCOc2cc(OC3CCOCC3)c3c(Nc4c(Cl)ccc5c4OCO5)ncnc3c2)CC1 [Saracatinib] + Nc1nc2[nH]cc(CCc3ccc(C(=O)N[C@@H](CCC(=O)O)C(=O)O)cc3)c2c(=O)[nH]1 [Pemetrexed] (partner 0.2 µM)
0.118
